# Tested on: PC12 cells that express mutant G93A SOD1
# protocol-text: Mutant SOD1-induced cytotoxicity protection assay
# condition-info: Rattus norvegicus, PC-12, read-out: EC50 after Normalization, normalised with the corresponding 3299 EC50
pEC50: −log10 of the molar value.
Given measured pEC50, output YES if it is greater than or equal to 6 and NO if not.

| smiles-text | label-class |
| --- | --- |
| COc1ccc(SCc2cc(=O)[nH][nH]2)cc1 | NO |
| O=c1cc(COc2ccc(Cl)c(Cl)c2)[nH][nH]1 | YES |

Pending compound:
# input Assess whether reported pEC50 for O=c1cc(CSc2ccccc2Cl)[nH][nH]1 sits at 6 or higher.
# output NO

---

Can you tell me Corresponding % viability for the items I'm about to list?
# Test system: PC12 cells that express mutant G93A SOD1
# protocol-text: Mutant SOD1-induced cytotoxicity protection assay
# condition-info: rat, 48 h

The following molecules have reported results that may help.
| molecule | Corresponding % viability |
| --- | --- |
| Cc1ccc(C)c(SCc2cc(=O)[nH][nH]2)c1 [CMB-086479-1] | 77% |
| O=c1cc(CSc2ccc(-c3ccccc3)cc2)[nH][nH]1 [CMB-086883-1] | 115% |
| O=c1cc(COc2cc(Cl)cc(Cl)c2)[nH][nH]1 [CMB-087229-5] | 123% |
| CCc1ccc(OCc2cc(=O)[nH][nH]2)cc1 [CMB-087241-1] | 88% |
| CCCCc1ccc(S(=O)(=O)Cc2cc(=O)[nH][nH]2)cc1 [CMB-087212-1] | 93% |

Quick request: Corresponding % viability for each listed item, please.
1. O=c1cc(CSc2ccc(Cl)cc2)[nH]n1-c1ccccc1 [CMB-086473-1]
2. O=c1cc(COc2cc(-c3ccccc3)cc(-c3ccccc3)c2)[nH][nH]1 [CMB-087644-1]
3. O=c1cc(CSc2ccc([N+](=O)[O-])cc2)[nH][nH]1 [CMB-053528-1]
4. O=c1cc(CSc2ccc(Cl)c(Cl)c2)[nH][nH]1 [CMB-053544-1]

# output
["109%", "68%", "136%", "113%"]

---

# protocol-text: In vitro microsomal stability, mouse
# Assay type: in vitro ADME
# condition-info: mouse, mouse liver microsomes; read-out: mouse metabolic potential T1/2
parameter: half-life (min)
One number for each entry, in min.

# input Which half-life reading was recorded for the compound O=c1cc(COc2cc(Cl)cc(Cl)c2)[nH][nH]1 [CMB-087229] ?
# output 36

---

# System: PC12 cells that express mutant G93A SOD1
# protocol-text: Mutant SOD1-induced cytotoxicity protection assay
# condition-info: read-out: Best EC50; PC12 G93A SOD1 cells, MG132, calcein-AM viability
pEC50: −log10 of the molar value.
Labelling: pEC50 reported below 6 becomes Met; at or above becomes Not met.

Consider the worked cases shown below.
| molecule | label-class |
| --- | --- |
| O=c1cc(COc2cc(Cl)cc(Cl)c2)[nH][nH]1 [CMB-087229-1] | Not met |
| O=c1cc(CSc2cc(Cl)cc(Cl)c2)[nH][nH]1 [CMB-086835-2] | Not met |
| O=c1cc(COc2ccc(Cl)cc2)[nH][nH]1 [CMB-086902-1] | Not met |
| O=c1cc(COc2cc(Cl)cc(Cl)c2)[nH][nH]1 [CMB-087229-5] | Not met |

Moving on to the next molecule.
# input Threshold test, pEC50 < 6: O=c1cc(CSc2ccc(Cl)cc2)[nH][nH]1 [CMB-053529-1]
# output Met

---

# protocol-text: In vitro microsomal stability, human
# Format: in vitro ADME
# condition-info: liver microsomes; Human, NADPH-dependent; read-out: CLint (microsomal intrinsic clearance)
parameter: microsomal CLint (µL/min/mg)
Numbers only, in µL/min/mg.

# input Looking for the measured microsomal CLint of O=c1cc(CNc2cc(Cl)cc(Cl)c2)[nH][nH]1 [Compound 2, reference compound] , can you help?
# output 24

---

# protocol-text: Brain uptake procedure, LCMS of brain and plasma
# Format: in vivo, mice (Tg6799 colony with B6/SJL background)
# condition-info: Tg6799 colony with B6/SJL background, mouse, brain/plasma, intraperitoneal, 1 mg/kg, 1 mg/kg i.p., 10 min July; read-out: Brain/Plasma Ratio (Mean ± S.E.)
parameter: Kp at 10 min
One number for each entry.

# input Endpoint output: Kp at 10 min of O=c1cc(COc2cc(Cl)cc(Cl)c2)[nH][nH]1 [CMB-087229] . Value?
# output 3.36

---

# Tested on: PC12 cells that express mutant G93A SOD1
# protocol-text: Mutant SOD1-induced cytotoxicity protection assay
# condition-info: read-out: EC50 after Normalization; normalised with the corresponding 3299 EC50
For each record, write down the corresponding pEC50.
Give bare numbers, as −log10 of the molar value.

Field: example entries. Status: answers known.
| molecule | system-name | pEC50 |
| --- | --- | --- |
| O=c1cc(CS(=O)(=O)c2cc(Cl)cc(Cl)c2)[nH][nH]1 [CMB-087235-2] | PC12 cells that express mutant G93A SOD1 | 5.85 |
| O=c1cc(CSc2cc(Cl)cc(Cl)c2)[nH][nH]1 [CMB-086835-2] | PC12 cells that express mutant G93A SOD1 | 6.54 |
| O=c1cc(COc2cc(Cl)cc(Cl)c2)[nH][nH]1 [CMB-087229-5] | PC12 cells that express mutant G93A SOD1 | 6.51 |

Please go through the list and note pEC50 for each molecule.
1. O=c1cc(COc2ccc(Cl)cc2)[nH][nH]1 [CMB-086902-2]
2. O=c1cc(COc2ccc(Cl)cc2)[nH][nH]1 [CMB-086902-3]
3. O=c1cc(COc2cc(Cl)cc(Cl)c2)[nH][nH]1 [CMB-087229-1]

# output
6.10
6.11
7.17

---

For each of the compounds below, state its Corresponding % viability.
# Tested on: PC12 cells that express mutant G93A SOD1
# protocol-text: Mutant SOD1-induced cytotoxicity protection assay
# condition-info: rat, 48 h
Answers are plain numbers, in %.

# annotated cases, reported Corresponding % viability shown
| compound | Corresponding % viability (%) |
| --- | --- |
| O=c1cc(COc2cc(Cl)cc(Cl)c2)[nH][nH]1 [CMB-087229-1] | 129 |
| Cn1[nH]c(COc2cc(Cl)cc(C(F)(F)F)c2)cc1=O [CMB-087264-1] | 109 |
| CC(C)c1ccc(S(=O)(=O)Cc2cc(=O)[nH][nH]2)cc1 [CMB-087211-1] | 103 |

Here are 2 compounds. What values of Corresponding % viability were reported for them?
1. O=c1cc(CSc2c(Cl)cccc2Cl)[nH][nH]1 [CMB-086480-1]
2. O=c1cc(CS(=O)(=O)c2cc(Cl)cc(Cl)c2)[nH][nH]1 [CMB-087235-1]

# output
142
130

---

# Tested on: PC12 cells that express mutant G93A SOD1
# protocol-text: Mutant SOD1-induced cytotoxicity protection assay
# condition-info: read-out: Best EC50; PC12 G93A SOD1 cells, MG132, calcein-AM viability
Lab note - cut at 700 nM for EC50: Fulfilled if strictly below, Not fulfilled if not.

# input Determine if O=c1cc(CSc2cc(Cl)cc(Cl)c2)[nH][nH]1 [CMB-086835-1] shows EC50 strictly lower than 700 nM.
# output Fulfilled

# input Dear colleague, could you confirm whether EC50 of O=c1cc(COc2ccc(Cl)cc2)[nH][nH]1 [CMB-086902-3] falls below 700 nM? Thanks.
# output Not fulfilled

# input Consider O=c1cc(CSCCOc2ccccc2)[nH][nH]1 . Does its EC50 lie strictly below 700 nM?
# output Not fulfilled

# input Is 700 nM strictly greater than the compound's reported EC50? compound: O=c1cc(CS(=O)(=O)c2cc(Cl)cc(Cl)c2)[nH][nH]1
# output Fulfilled

# input Given Cc1cc(SCc2cc(=O)[nH][nH]2)c(C)cc1Cl , is recorded EC50 strictly lower than 700 nM?
# output Fulfilled

---

Provide the recorded pEC50 for the entries that follow.
# Test system: PC12 cells that express mutant G93A SOD1
# protocol-text: Mutant SOD1-induced cytotoxicity protection assay
# condition-info: Rattus norvegicus, PC-12, read-out: EC50 after Normalization, normalised with the corresponding 3299 EC50
Give bare numbers, as −log10 of the molar value.

Provide the reported pEC50 of each entry below, same order.
1. CCc1cccc(OCc2cc(=O)[nH][nH]2)c1
2. O=c1cc(CS(=O)(=O)c2cc(Cl)cc(Cl)c2)[nH][nH]1
3. Cc1cc(S(=O)(=O)Cc2cc(=O)[nH][nH]2)c(C)cc1Cl
4. O=c1cc(COc2cccc(Br)c2)[nH][nH]1
5. O=c1cc(COc2cc(F)cc(F)c2)[nH][nH]1
6. O=c1cc(CSCCOc2ccccc2)[nH][nH]1
7. O=c1cc(CSc2ccc(-c3ccccc3)cc2)[nH][nH]1

# output
6.14
6.12
5.83
5.99
5.97
5.12
5.39

Cited source for all entries: patent US9145424B2
